- Tested on: genotype 4a stable HCV replicon (ED43 strain) in Huh-7-derived cells
- Assay procedure: Stable subgenomic HCV replicon EC50, genotype 4a (Renilla luciferase)
- Format: cell-based
- Experimental context: Hepatitis C virus, 72 h, read-out: EC50 4A RLUC
Experimental readout: pEC50
As a rule, pEC50 stands for the negative log10 of the concentration, concentration in M.

Task: Form: Entry = "CC[C@@H]1[C@@H]2CN(C(=O)[C@H](C(C)(C)C)NC(=O)O[C@@]3(C(F)(F)F)CCC[C@H]3CCCCCc3nc4ccc(OC)cc4nc3O2)[C@@H]1C(=O)N[C@]1(C(=O)NS(=O)(=O)C2CC2)C[C@H]1C(F)F" | System = genotype 4a stable HCV replicon (ED43 strain) in Huh-7-derived cells | pEC50 = ____
Result: 7.68

Task: Try this compound next: "COc1ccc2nc3c(nc2c1)O[C@H]1CN(C(=O)[C@H](C(C)(C)C)NC(=O)O[C@@H]2C[C@H]2CCCCC3)[C@H](C(=O)N[C@]2(C(=O)NS(=O)(=O)C3(C)CC3)C[C@H]2C(F)F)[C@@H]1C1CC1"
Result: 7.70
